The reported numbers originate from paper PMC8197275.

testedTarget: UniProt Q9NUW8
experimentNotes: Tdp1 cleavage activity, fluorophore quencher-coupled DNA-biosensor, real-time
Format: biochemical
Parameters: inferred from the pET 16B vector and Ni-chelating resin purification; made in house
conditionSet: recombinant Tdp1 1.5 nM, 50 nM biosensor; read-out: IC50 (Tdp1 activity inhibition at 50%)
parameterMeasured: pIC50
pIC50 is a log-scale quantity: -log10 of the concentration expressed in molar.

Look over these answered cases.
>  <molecule>
C=C(C)[C@@H]1CC=C(CSc2n[nH]c(C34CC5CC(CC(C5)C3)C4)n2)CC1 [20e]

>  <pIC50>
5.21

$$$$
>  <molecule>
CC1(C)[C@H]2CC=C(C(=O)Nc3nnc(C45CC6CC(CC(C6)C4)C5)s3)[C@@H]1C2 [25c]

>  <pIC50>
6.35

$$$$
>  <molecule>
CC(C)=CCCC(C)CC(=O)Nc1nnc(C23CC4CC(CC(C4)C2)C3)s1 (centres unmarked) [25b]

>  <pIC50>
5.59

$$$$
>  <molecule>
CC(C)CCCC(C)CCSc1n[nH]c(C23CC4CC(CC(C4)C2)C3)n1 (centres unmarked) [20a]

>  <pIC50>
6.27

$$$$
>  <molecule>
CC(C)=CCC/C(C)=C\CSc1n[nH]c(C23CC4CC(CC(C4)C2)C3)n1 [20d]

>  <pIC50>
5.25

$$$$

What value of pIC50 has been reported for the following molecule? CC(C)=CCC[C@H](C)CCSc1n[nH]c(C23CC4CC(CC(C4)C2)C3)n1 [20b]
5.82

What value of pIC50 has been reported for the following molecule? CC1(C)[C@H]2CC=C(CCSc3n[nH]c(C45CC6CC(CC(C6)C4)C5)n3)[C@@H]1C2 [20g]
6.24

---

System: HeLa cells
experimentNotes: Sensitizing of HeLa cells to topotecan by Tdp1 inhibitors
Type: cell-based, human
conditionSet: human, 3 days, 5 µM
# HeLa CC50 of topotecan with Tdp1 inhibitor per record follows
Value expressed in µM; do not type the unit.

Look over these answered cases.
>  <molecule>
CC(C)=CCC/C(C)=C\CSc1n[nH]c(C23CC4CC(CC(C4)C2)C3)n1 [20d]

>  <observedMeasurement>
5.4

$$$$
>  <molecule>
CC1(C)[C@H]2CC=C(CCSc3n[nH]c(C45CC6CC(CC(C6)C4)C5)n3)[C@@H]1C2 [20g]

>  <observedMeasurement>
2.6

$$$$
>  <molecule>
CC(C)CCCC(C)CCSc1n[nH]c(C23CC4CC(CC(C4)C2)C3)n1 (centres unmarked) [20a]

>  <observedMeasurement>
4.5

$$$$
>  <molecule>
CC1(C)[C@H]2CC=C(C(=O)Nc3nnc(C45CC6CC(CC(C6)C4)C5)s3)[C@@H]1C2 [25c]

>  <observedMeasurement>
3.6

$$$$
>  <molecule>
CC(C)=CCC/C(C)=C/CSc1n[nH]c(C23CC4CC(CC(C4)C2)C3)n1 [20c]

>  <observedMeasurement>
1.9

$$$$
>  <molecule>
CC(C)CCCC(C)CC(=O)Nc1nnc(C23CC4CC(CC(C4)C2)C3)s1 (centres unmarked) [25a]

>  <observedMeasurement>
4.9

$$$$
>  <molecule>
CC1(C)[C@H]2CC=C(CSc3n[nH]c(C45CC6CC(CC(C6)C4)C5)n3)[C@@H]1C2 [20f]

>  <observedMeasurement>
2.8

$$$$

Value wanted: HeLa CC50 of topotecan with Tdp1 inhibitor (HeLa cells) of entry CC(C)=CCCC(C)CC(=O)Nc1nnc(C23CC4CC(CC(C4)C2)C3)s1 (centres unmarked) [25b]
2.9

---

experimentNotes: Cytotoxicity, MTT test, HCT-116
Assay type: cell-based
conditionSet: human, HCT-116 cells; colorectal HCT-116, 72 h MTT
# CC50 at 72 h per record follows
Value expressed in µM; do not type the unit.

Look over these answered cases.
>  <molecule>
CC1(C)[C@H]2CC=C(CSc3n[nH]c(C45CC6CC(CC(C6)C4)C5)n3)[C@@H]1C2 [20f]

>  <CC50 at 72 h [µM]>
54

$$$$
>  <molecule>
CC(C)=CCCC(C)CC(=O)Nc1nnc(C23CC4CC(CC(C4)C2)C3)s1 (centres unmarked) [25b]

>  <CC50 at 72 h [µM]>
66

$$$$

What value of CC50 at 72 h has been reported for the following molecule? CC(C)=CCC/C(C)=C\CSc1n[nH]c(C23CC4CC(CC(C4)C2)C3)n1 [20d]
20

---

# pIC50 per record follows
testedTarget: Tdp1 (Homo sapiens)
Sequence (Q9NUW8 whole entry): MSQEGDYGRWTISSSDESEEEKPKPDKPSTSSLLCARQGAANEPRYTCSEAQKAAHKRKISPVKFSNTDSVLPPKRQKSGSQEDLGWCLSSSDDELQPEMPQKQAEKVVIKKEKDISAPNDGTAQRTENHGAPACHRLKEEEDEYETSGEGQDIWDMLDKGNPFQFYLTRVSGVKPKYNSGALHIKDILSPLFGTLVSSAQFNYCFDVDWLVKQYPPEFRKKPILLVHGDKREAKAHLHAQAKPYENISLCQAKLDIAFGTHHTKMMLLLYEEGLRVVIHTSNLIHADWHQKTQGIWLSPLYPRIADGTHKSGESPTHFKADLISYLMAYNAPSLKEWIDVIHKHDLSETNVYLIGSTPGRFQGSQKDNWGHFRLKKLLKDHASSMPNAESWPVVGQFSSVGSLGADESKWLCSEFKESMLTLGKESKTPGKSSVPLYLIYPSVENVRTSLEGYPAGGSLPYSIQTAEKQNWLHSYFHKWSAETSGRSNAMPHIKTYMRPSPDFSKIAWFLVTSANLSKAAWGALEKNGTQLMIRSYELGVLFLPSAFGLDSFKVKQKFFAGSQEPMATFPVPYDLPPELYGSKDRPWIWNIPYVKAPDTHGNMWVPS
experimentNotes: Tdp1 cleavage activity, fluorophore quencher-coupled DNA-biosensor, real-time
Assay type: biochemical
Design: inferred from the pET 16B vector and Ni-chelating resin purification; made in house
conditionSet: recombinant Tdp1 1.5 nM, 50 nM biosensor; read-out: IC50 (Tdp1 activity inhibition at 50%)
pIC50 is a log-scale quantity: -log10 of the concentration expressed in molar.

What value of pIC50 has been reported for the following compound? CC(C)CCCC(C)CC(=O)Nc1nnc(C23CC4CC(CC(C4)C2)C3)s1 (stereo not shown) [25a]
6.46

What value of pIC50 has been reported for the following compound? CC1(C)[C@H]2CC=C(CSc3n[nH]c(C45CC6CC(CC(C6)C4)C5)n3)[C@@H]1C2 [20f]
5.12

What value of pIC50 has been reported for the following compound? CC(C)=CCC/C(C)=C/CSc1n[nH]c(C23CC4CC(CC(C4)C2)C3)n1 [20c]
5.28
